- assay: Molar enthalpy of transition or fusion
- condition_notes: Crystal; DSC
# label = True if Molar enthalpy of transition or fusion < 5 kcal/mol else False

These solved cases illustrate the format of a correct answer.
>  <compound>
[O-][n+]1cccc2ccccc21 [quinoline 1-oxide]

>  <label>
True

$$$$
>  <compound>
O=[N+]([O-])c1cc[n+]([O-])cc1 [4-nitropyridine N-oxide]

>  <label>
True

$$$$

Lab note: Molar enthalpy of transition or fusion threshold 5 kcal/mol. Does this compound come in strictly under it? Cc1cc[n+]([O-])cc1 [4-methylpyridine-N-oxide]
True

Consider O=C(O)c1ccc[n+]([O-])c1 [3-pyridinecarboxylic acid N-oxide] . Does its Molar enthalpy of transition or fusion lie strictly below 5 kcal/mol?
False

Criterion: Molar enthalpy of transition or fusion strictly below 5 kcal/mol. Is it met by [O-][n+]1cccc(O)c1 [3-hydroxypyridine-N-oxide] ?
True
